Documented CC50 across a set of compounds
# Procedure text: Cytotoxicity against human Huh7.5.1 cells by MTT assay
# Type: cell-based, Huh-7

Field: example entries. Status: answers known.
{"Compound": "O=c1cc(-c2ccc(O)c(O)c2)oc2cc(O)c([C@@H]3O[C@H](CO)[C@@H](O)[C@H](O)[C@H]3O)c(O)c12 [ISOORIENTIN]", "CC50": "> 50 µM"}
{"Compound": "O=c1cc(-c2ccc(O)c(-c3c(O)cc(O)c4c(=O)cc(-c5ccc(O)cc5)oc34)c2)oc2cc(O)cc(O)c12 [AMENTOFLAVONE]", "CC50": "> 50 µM"}
{"Compound": "O=c1c(O)c(-c2ccc(O)cc2)oc2cc(O)cc(O)c12 [KAEMPFEROL]", "CC50": "> 50 µM"}
{"Compound": "O=c1c(O)c(-c2ccc(O)cc2O)oc2cc(O)cc(O)c12 [MORIN]", "CC50": "> 50 µM"}
{"Compound": "O=c1cc(-c2ccc(O)c(O)c2)oc2c(O)c(O)ccc12", "CC50": "> 50 µM"}

Next compound, please.
Recorded CC50 for O=C1c2cccc(O)c2C(=O)c2c(O)cc(CO)cc21 [ALOE-EMODIN] , please?
> 50 µM

----------
Documented CC50 across a set of molecules
# Procedure text: Cytotoxicity against human Huh7.5.1 cells by MTT assay
# Type: cell-based, Huh-7

{"Molecule": "COc1c(O)cc2oc(-c3ccc(O)c(O)c3)cc(=O)c2c1O [EUPAFOLIN]", "CC50": "> 50 µM"}

Recorded CC50 for O=C(/C=C/c1ccc(O)cc1)c1ccc(O)cc1O [ISOLIQUIRITIGENIN] , please?
> 50 µM

Recorded CC50 for O=c1c(O)c(-c2cc(O)c(O)c(O)c2)oc2cc(O)cc(O)c12 [MYRICETIN] , please?
> 50 µM

Recorded CC50 for O=c1cc(-c2ccc(O)cc2)oc2cc(O)cc(O)c12 [APIGENIN] , please?
> 50 µM

Recorded CC50 for O=c1c(O)c(-c2ccc(O)c(O)c2)oc2cc(O)ccc12 [FISETIN] , please?
> 50 µM

----------
# Test system: Hepatitis C virus
# Procedure text: Antiviral activity against HCV genotype 2a […] in Human Huh7.5.1 replicon cells assessed as suppression of viral replication after 72 hrs by luciferase reporter gene assay
# Type: functional, organism-based, Hepacivirus hominis
# Test context: Huh-7, 72 h
Documented pEC50 across a set of compounds
Here pEC50 is given on a logarithmic scale as minus log10 of the concentration in mol/L.

{"Compound": "O=c1cc(-c2ccc(O)cc2)oc2cc(O)cc(O)c12 [APIGENIN]", "pEC50": 4.92}

Next compound, please.
Can you look up pEC50 on Hepatitis C virus for O=c1cc(-c2ccc(O)c(O)c2)oc2cc(O)cc(O)c12 [LUTEOLIN] ?
5.18

----------
# Test system: Hepatitis C virus
# Procedure text: Inhibition of HCV 1b NS5B polymerase
# Design: species or system Hepatitis C virus subtype 1b
Readout type: pIC50
Here pIC50 is given on a logarithmic scale as minus log10 of the concentration in mol/L.

Recorded pIC50 for O=c1cc(-c2ccc(O)c(O)c2)oc2cc(O)cc(O)c12 [LUTEOLIN] , please?
5.95
